The values you see were collected from paper PMC7587356.

- measurement target: SARS-CoV-2 3CLpro (Severe acute respiratory syndrome coronavirus 2, UniProt P0DTD1)
- experiment summary: biochemical
- Format: biochemical
- condition description: LOPAC1280 primary screen with protease, 5 µM compound, replicate 1
readout kind: Replicate_1 (LOPAC_screen_w_protease)
Reply briefly: the number, and no unit.

INSERT INTO measurements (compound, measurement_target, readout_kind, observed_result) VALUES
  ('NC(CCCP(=O)(O)O)C(=O)O (racemic) [(±)-2-Amino-5-phosphonopentanoic acid]', 'SARS-CoV-2 3CLpro (Severe acute respiratory syndrome coronavirus 2, UniProt P0DTD1)', 'Replicate_1 (LOPAC_screen_w_protease)', 1.59),
  ('CC(C)(C=O)Cc1cc(C(C)(C)C)c(O)c(C(C)(C)C)c1', 'SARS-CoV-2 3CLpro (Severe acute respiratory syndrome coronavirus 2, UniProt P0DTD1)', 'Replicate_1 (LOPAC_screen_w_protease)', -0.1889),
  ('CC1CNCCN1S(=O)(=O)c1cccc2cnccc12.Cl.Cl (centres unmarked) [H-7 dihydrochloride]', 'SARS-CoV-2 3CLpro (Severe acute respiratory syndrome coronavirus 2, UniProt P0DTD1)', 'Replicate_1 (LOPAC_screen_w_protease)', 2.345),
  ('NC(C(=O)O)C(O)C(=O)O (racemic) [DL-threo-beta-hydroxyaspartic acid]', 'SARS-CoV-2 3CLpro (Severe acute respiratory syndrome coronavirus 2, UniProt P0DTD1)', 'Replicate_1 (LOPAC_screen_w_protease)', 2.385),
  ('CC(C)(C)NCC(O)c1ccc(O)c(CO)c1.CC(C)(C)NCC(O)c1ccc(O)c(CO)c1.O=S(=O)(O)O (centres unmarked) [Albuterol hemisulfate]', 'SARS-CoV-2 3CLpro (Severe acute respiratory syndrome coronavirus 2, UniProt P0DTD1)', 'Replicate_1 (LOPAC_screen_w_protease)', 2.563),
  ('COc1ccc(CCN(C)CCCC(C#N)(c2cc(OC)c(OC)c(OC)c2)C(C)C)cc1OC.Cl (racemic) [(±)-Methoxyverapamil hydrochloride]', 'SARS-CoV-2 3CLpro (Severe acute respiratory syndrome coronavirus 2, UniProt P0DTD1)', 'Replicate_1 (LOPAC_screen_w_protease)', 2.317),
  ('CC1CCN(CC[C@H]2CCCN2S(=O)(=O)c2cccc(O)c2)CC1.Cl [SB 269970 hydrochloride]', 'SARS-CoV-2 3CLpro (Severe acute respiratory syndrome coronavirus 2, UniProt P0DTD1)', 'Replicate_1 (LOPAC_screen_w_protease)', 1.356);

We now examine a further compound.
Request: Read off the recorded Replicate_1 (LOPAC_screen_w_protease) for Oc1cccc2c(O)nccc12
Result: 1.193
